# credit: patent US10065950B2

IC50 for assorted compounds
# ASSAY TARGET: HIV-1 pNL4-3 integrase (Human immunodeficiency virus type 1 group M subtype B (isolate NY5) (HIV-1), UniProt P12497)
# METHOD: Determination of enzyme (HIV integrase) inhibitory activity
# ASSAY CONDITIONS: calculated from inhibition rate (fluorescence)
# Text: The following explains evaluation methods of the HIV integrase inhibitory activity of the compound of the present invention. A full-length gene sequence (Accession No.: M19921) of HIV-1 pNL4-3 integrase was inserted into restriction enzyme Nde I and Xho I sites of plasmid pET21a(+) (manufactured by Novagen) to construct an integrase expression vector pET21a-IN-Wild type. […]

{"COMPOUND": "CC(C)N1C(=O)c2c(O)c(=O)c(-c3nnc(Cc4ccc(F)cc4)s3)cn2C[C@H]1CO [Example 354]", "IC50": "8 nM"}
{"COMPOUND": "COC[C@@H]1Cn2cc(-c3nnc(Cc4ccc(F)cc4)s3)c(=O)c(O)c2C(=O)N1C1CCC1 [Example 195]", "IC50": "5.9 nM"}
{"COMPOUND": "CO[C@H]1CCN(C(=O)[C@@]2(C)CN(C(C)C)C(=O)c3c(O)c(=O)c(-c4ncc(Cc5ccc(F)cc5)s4)cn32)C1 [Example 214]", "IC50": "16 nM"}
{"COMPOUND": "CC(C)N1C[C@](C)(C(=O)N2CC[C@@H](O)C2)n2cc(-c3nnc(Cc4ccc(F)cc4)s3)c(=O)c(O)c2C1=O [Example 205]", "IC50": "13 nM"}
{"COMPOUND": "CCN1C(=O)c2c(O)c(=O)c(-c3ncc(Cc4ccc(F)cc4)s3)cn2C[C@@]1(C)C(=O)N1CCCC1 [Example 254]", "IC50": "7.6 nM"}
{"COMPOUND": "COCC1CN(C(C)C)C(=O)c2c(O)c(=O)c(-c3nnc(Cc4ccc(F)cc4F)s3)cn21 (stereo not shown) [Example 18]", "IC50": "8.2 nM"}
{"COMPOUND": "CCN1C(=O)c2c(O)c(=O)c(-c3nnc(Cc4ccc(F)cc4)s3)cn2C[C@@]1(C)COC [Example 270]", "IC50": "9.5 nM"}

---

# ASSAY TARGET: HIV-1 pNL4-3 integrase (Human immunodeficiency virus type 1 group M subtype B (isolate NY5) (HIV-1))
# METHOD: Determination of enzyme (HIV integrase) inhibitory activity
# ASSAY CONDITIONS: calculated from inhibition rate (fluorescence)
Output condition met for records whose IC50 is lower than 0.01 µM, condition not met for records at or above 0.01 µM.

{"MOLECULE": "CC(C)N1CC2(CCOCC2)n2cc(-c3nnc(Cc4ccc(F)cc4F)s3)c(=O)c(O)c2C1=O [Example 8]", "DISCRETE LABEL": "condition met"}
{"MOLECULE": "CCN1C(=O)c2c(O)c(=O)c(-c3nnc(Cc4ccc(F)cc4)s3)cn2C[C@]1(C)COC [Example 318]", "DISCRETE LABEL": "condition met"}
{"MOLECULE": "CCN1C(=O)c2c(O)c(=O)c(-c3nnc(Cc4ccc(F)cc4)s3)cn2[C@@H](COC)[C@@H]1C [Example 284]", "DISCRETE LABEL": "condition not met"}
{"MOLECULE": "COC1CN(C(=O)[C@@]2(C)CN(C(C)C)C(=O)c3c(O)c(=O)c(-c4ncc(Cc5ccc(F)cc5)s4)cn32)C1 [Example 237]", "DISCRETE LABEL": "condition not met"}
{"MOLECULE": "CCN1C(=O)c2c(O)c(=O)c(-c3ncc(Cc4ccc(F)cc4)s3)cn2[C@@H](COC)[C@H]1C [Example 261]", "DISCRETE LABEL": "condition not met"}
{"MOLECULE": "COCCOC[C@H]1CN(C(C)C)C(=O)c2c(O)c(=O)c(-c3nnc(Cc4ccc(F)cc4F)s3)cn21 [Example 134]", "DISCRETE LABEL": "condition not met"}
{"MOLECULE": "CCC(CC)N1C(=O)c2c(O)c(=O)c(-c3nnc(Cc4ccc(F)cc4)s3)cn2C[C@H]1COC [Example 295]", "DISCRETE LABEL": "condition not met"}
{"MOLECULE": "CN1C[C@@](C)(C(=O)N2CCC2)n2cc(-c3ncc(Cc4ccc(F)cc4)s3)c(=O)c(O)c2C1=O [Example 266]", "DISCRETE LABEL": "condition not met"}
{"MOLECULE": "CNC(=O)CC1Cn2cc(-c3nnc(Cc4ccc(F)cc4F)s3)c(=O)c(O)c2C(=O)N1C(C)C (centres unmarked) [Example 81]", "DISCRETE LABEL": "condition met"}
{"MOLECULE": "CCN1C[C@](C)(CO)n2cc(-c3nnc(Cc4ccc(F)cc4)s3)c(=O)c(O)c2C1=O [Example 269]", "DISCRETE LABEL": "condition met"}
{"MOLECULE": "CCN1C(=O)c2c(O)c(=O)c(-c3nnc(Cc4ccc(F)cc4)s3)cn2C[C@H]1C [Example 328]", "DISCRETE LABEL": "condition met"}
{"MOLECULE": "CCN1C(=O)c2c(O)c(=O)c(-c3ncc(Cc4ccc(F)cc4)s3)cn2C[C@]1(C)C(=O)N(C)C [Example 293]", "DISCRETE LABEL": "condition met"}
{"MOLECULE": "CC(C)NC(=O)CC1CN(C(C)C)C(=O)c2c(O)c(=O)c(-c3ncc(Cc4ccc(F)cc4F)s3)cn21 (centres unmarked) [Example 36]", "DISCRETE LABEL": "condition not met"}
{"MOLECULE": "CC(C)N1C[C@@](C)(C(=O)N(C)C)n2cc(-c3nnc(Cc4ccc(F)cc4F)s3)c(=O)c(O)c2C1=O [Example 171]", "DISCRETE LABEL": "condition not met"}
{"MOLECULE": "CC(C)N1C[C@](C)(C(=O)N2CCCC2)n2cc(-c3nnc(Cc4ccc(F)cc4F)s3)c(=O)c(O)c2C1=O [Example 170]", "DISCRETE LABEL": "condition not met"}
{"MOLECULE": "CC[C@@H]1Cn2cc(-c3ncc(Cc4ccc(F)cc4)s3)c(=O)c(O)c2C(=O)N1CC [Example 327]", "DISCRETE LABEL": "condition met"}
{"MOLECULE": "CCNC(=O)[C@]1(C)CN(C(C)C)C(=O)c2c(O)c(=O)c(-c3nnc(Cc4ccc(F)cc4F)s3)cn21 [Example 174]", "DISCRETE LABEL": "condition not met"}
